All figures here come from BigSolDB 2.1.

measurement_conditions: in 1,4-dioxane, 298.15 K
observable: solubility (mole fraction)

1. O=C(O)CNC(=O)c1ccccc1
0.00729

----------
measurement_conditions: in methanol, 313.15 K
observable: solubility (mole fraction)

1. O=C(O)CNC(=O)c1ccccc1
0.0275

----------
measurement_conditions: in methanol, 328.15 K
observable: solubility (mole fraction)

1) O=C(O)CNC(=O)c1ccccc1
0.0448

----------
measurement_conditions: in n-butanol, 313.15 K
observable: solubility (mole fraction)

1. O=C(O)CNC(=O)c1ccccc1
0.0128

----------
measurement_conditions: in chloroform, 323.15 K
observable: solubility (mole fraction)

1. O=C(O)CNC(=O)c1ccccc1
0.00102

----------
measurement_conditions: in methanol, 308.15 K
observable: solubility (mole fraction)

1) O=C(O)CNC(=O)c1ccccc1
0.023

----------
measurement_conditions: in chloroform, 328.15 K
observable: solubility (mole fraction)

1) O=C(O)CNC(=O)c1ccccc1
0.0011

----------
measurement_conditions: in DMF, 318.15 K
observable: solubility (mole fraction)

1. O=C(O)CNC(=O)c1ccccc1
0.232

----------
measurement_conditions: in THF, 318.15 K
observable: solubility (mole fraction)

1) O=C(O)CNC(=O)c1ccccc1
0.0228

----------
measurement_conditions: in THF, 303.15 K
observable: solubility (mole fraction)

1. O=C(O)CNC(=O)c1ccccc1
0.0167

----------
measurement_conditions: in n-propanol, 323.15 K
observable: solubility (mole fraction)

1) O=C(O)CNC(=O)c1ccccc1
0.0201
